Data credit: patent US4551445A

# Tested on: vasopressor response to arginine vasopressin
# Experimental protocol: Antivasopressor: antagonism to the vasopressor response (Dyckes et al.)
# Format: in vivo
# Condition notes: Table 1; estimated in vivo pA2
Starred links: 1 amine or outer side, 2 acyl side, 3 side chain; linkers in the order of their positions; H or OH if unused. Positions of bridges follow the written chain, without caps; N, C: chain ends. Non-standard residues stand in square brackets, D forms with d. Residues, ends and D or L forms follow the SMILES beside them. X1 = O=C(CC1(S[*:2])CCCCC1)[*:1]
Measured endpoint: Antivasopressor pA2

1) CCOc1ccc(C[C@H]2NC(=O)CC3(CCCCC3)SSC[C@@H](C(=O)N3CCC[C@@H]3C(=O)N[C@@H](CCCNC(=N)N)C(=O)NCC(N)=O)NC(=O)[C@H](CC(N)=O)NC(=O)[C@H](C(C)C)NC(=O)[C@H](Cc3ccccc3)NC2=O)cc1 [d(CH2)5 D-Tyr(Et)^2 D-Pro^7 VAVP] ([dY](Et)FVNC[dP]RG-NH2; linker N-5 via X1); 8.10
2) CCOc1ccc(C[C@H]2NC(=O)CC3(CCCCC3)SSC[C@@H](C(=O)N3CCC[C@H]3C(=O)N[C@@H](CCCNC(=N)N)C(=O)NCC(N)=O)NC(=O)[C@H](CC(N)=O)NC(=O)[C@H](C(C)C)NC(=O)[C@H](Cc3ccccc3)NC2=O)cc1 [d(CH2)5 --D-Tyr(Et)VAVP] ([dY](Et)FVNCPRG-NH2; linker N-5 via X1); 8.22

###

# Tested on: vasopressor response to arginine vasopressin
# Experimental protocol: Antivasopressor: antagonism to the vasopressor response (Dyckes et al.)
# Format: in vivo
# Condition notes: Table 1; estimated in vivo pA2
# Procedure: Antagonism to the vasopressor response was estimated in accordance with Dyckes et al., J. Med. Chem., vol. 17 (1974) at 969. The values are expressed as pA2 values, defined as in Schild et al., Br. J. Pharmacol., vol. 2 (1947) at 189. Antagonistic potencies were determined and expressed as "effective doses" and pA2 values. […]
Starred links: 1 amine or outer side, 2 acyl side, 3 side chain; linkers in the order of their positions; H or OH if unused. Positions of bridges follow the written chain, without caps; N, C: chain ends. Non-standard residues stand in square brackets, D forms with d. Residues, ends and D or L forms follow the SMILES beside them. X1 = O=C(CC1(S[*:2])CCCCC1)[*:1]
Measured endpoint: Antivasopressor pA2

1) CCOc1ccc(C[C@@H]2NC(=O)CC3(CCCCC3)SSC[C@@H](C(=O)N3CCC[C@@H]3C(=O)N[C@@H](CCCNC(=N)N)C(=O)NCC(N)=O)NC(=O)[C@H](CC(N)=O)NC(=O)[C@H](C(C)C)NC(=O)[C@H](Cc3ccccc3)NC2=O)cc1 [d(CH2)5 Tyr(Et)^2 D-Pro^7 VAVP] (Y(Et)FVNC[dP]RG-NH2; linker N-5 via X1); 8.23
2) COc1ccc(C[C@H]2NC(=O)CC3(CCCCC3)SSC[C@@H](C(=O)N3CCC[C@H]3C(=O)N[C@@H](CCCNC(=N)N)C(=O)NCC(N)=O)NC(=O)[C@H](CC(N)=O)NC(=O)[C@H](CCC(N)=O)NC(=O)[C@H](Cc3ccccc3)NC2=O)cc1 [d(CH2)5 [D-Tyr(Me)^2]AVP] ([dY](Me)FQNCPRG-NH2; linker N-5 via X1); 8.27
3) CCOc1ccc(C[C@@H]2NC(=O)CC3(CCCCC3)SSC[C@@H](C(=O)N3CCC[C@H]3C(=O)N[C@H](CCCNC(=N)N)C(=O)NCC(N)=O)NC(=O)[C@H](CC(N)=O)NC(=O)[C@H](C(C)C)NC(=O)[C@H](Cc3ccccc3)NC2=O)cc1 [d(CH2)5 Tyr(Et)VDAVP] (Y(Et)FVNCP[dR]G-NH2; linker N-5 via X1); 8.31
4) COc1ccc(C[C@@H]2NC(=O)CC3(CCCCC3)SSC[C@@H](C(=O)N3CCC[C@H]3C(=O)N[C@@H](CCCNC(=N)N)C(=O)NCC(N)=O)NC(=O)[C@H](CC(N)=O)NC(=O)[C@H](CCC(N)=O)NC(=O)[C@H](Cc3ccccc3)NC2=O)cc1 [d(CH2)5 Tyr(Me)AVP, reference compound] (Y(Me)FQNCPRG-NH2; linker N-5 via X1); 8.62
5) COc1ccc(C[C@@H]2NC(=O)CC3(CCCCC3)SSC[C@H](C(=O)N3CCC[C@H]3C(=O)N[C@@H](CCCNC(=N)N)C(=O)NCC(N)=O)NC(=O)[C@H](CC(N)=O)NC(=O)[C@H](CCC(N)=O)NC(=O)[C@H](Cc3ccccc3)NC2=O)cc1 [d(CH2)5 Tyr(Me)^2 D-Cys^6 AVP] (Y(Me)FQN[dC]PRG-NH2; linker N-5 via X1); 7.87
